systemUnderTest: MERTK (UniProt Q12866)
Sequence (Q12866 whole entry, looked up): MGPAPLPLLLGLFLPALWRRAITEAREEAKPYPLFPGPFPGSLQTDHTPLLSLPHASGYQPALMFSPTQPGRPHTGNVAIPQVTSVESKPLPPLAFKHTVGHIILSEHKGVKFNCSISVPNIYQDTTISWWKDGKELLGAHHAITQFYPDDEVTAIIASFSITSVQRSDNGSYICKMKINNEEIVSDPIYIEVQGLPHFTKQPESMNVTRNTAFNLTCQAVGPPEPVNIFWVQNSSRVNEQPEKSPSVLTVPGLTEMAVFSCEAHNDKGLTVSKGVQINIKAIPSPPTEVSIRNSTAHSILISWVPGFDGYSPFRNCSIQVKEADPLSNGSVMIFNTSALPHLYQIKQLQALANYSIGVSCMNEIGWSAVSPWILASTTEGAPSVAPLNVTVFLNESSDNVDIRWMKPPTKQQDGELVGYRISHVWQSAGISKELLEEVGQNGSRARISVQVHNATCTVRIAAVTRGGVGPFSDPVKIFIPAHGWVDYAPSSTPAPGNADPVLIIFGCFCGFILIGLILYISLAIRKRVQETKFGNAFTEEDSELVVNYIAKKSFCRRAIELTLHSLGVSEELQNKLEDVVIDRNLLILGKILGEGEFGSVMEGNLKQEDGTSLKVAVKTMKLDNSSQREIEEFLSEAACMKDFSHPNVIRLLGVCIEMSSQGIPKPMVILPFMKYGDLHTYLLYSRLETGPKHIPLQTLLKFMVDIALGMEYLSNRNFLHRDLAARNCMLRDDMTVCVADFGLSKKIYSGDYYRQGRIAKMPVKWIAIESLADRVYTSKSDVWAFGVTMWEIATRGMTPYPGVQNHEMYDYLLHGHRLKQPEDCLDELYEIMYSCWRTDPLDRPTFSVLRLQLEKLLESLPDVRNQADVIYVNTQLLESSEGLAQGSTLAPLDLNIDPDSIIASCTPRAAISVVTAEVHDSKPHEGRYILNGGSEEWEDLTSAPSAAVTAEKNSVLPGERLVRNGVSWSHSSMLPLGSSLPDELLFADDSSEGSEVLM
assayNotes: phosphorylation enrichment, bacterial display (enrichment ratio); higher = better substrate or ligand; peptides without Tyr show the background;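 further: 11-residue human phosphosite peptides and single-mutation variants displayed on the E. coli surface, counted by deep sequencing, each peptide's frequency after selection divided by its frequency in the unselected input library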;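 further: frequency after pTyr selection over input frequency; kinase dosed for 20-30% of maximal phosphorylation in three min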
# if value of phosphorylation enrichment reaches 0.4, tag met; if it stays below, tag not met

IN: Hi, just wondering whether RDSQIYAVDYE [MRPS34_Y34_L33I] shows phosphorylation enrichment of 0.4 or higher.
OUT: met

IN: Dear colleague, could you confirm whether ARMTNYGLPRY [TSPAN12_Y138] has phosphorylation enrichment at or above 0.4?
OUT: met

IN: Please tell me: is the sequence RLCQDYDIIGP [ANK1_Y1073_T1075I] at or over 0.4 in terms of phosphorylation enrichment?
OUT: met

IN: Is it the case that SNVEQYQAMVT [TPR_Y965] has phosphorylation enrichment reaching or exceeding 0.4?
OUT: not met

IN: Threshold query (phosphorylation enrichment >= 0.4) on EDDIIYTQDFT [STK11_Y362]
OUT: met

IN: Identify whether the reported phosphorylation enrichment of the following sequence is 0.4 or greater: SIIKDYFHRGT [GATM_Y203_A208T]
OUT: not met

IN: // inclusive: phosphorylation enrichment at least 0.4? input: KDQGGYAMHQD [MAPT_Y29_T30A]
OUT: met

IN: Form field: phosphorylation enrichment at least 0.4? Entry: DHTVNYVLKCR [PLEKHG4_Y1068_R1064H]
OUT: met

IN: Can EVQKDYEHLFK [PAM16_Y77_N76D] be said to have phosphorylation enrichment at or above 0.4?
OUT: met

IN: Given KRLKDYLMVLQ [USP25_Y425_T427M] , state whether its phosphorylation enrichment is at least 0.4.
OUT: met

IN: Reported phosphorylation enrichment at or above 0.4? PPAPRYHHSAV [LZTR1_Y119]
OUT: not met

IN: Would you say HAKKNYGNSSV [HDX_Y197] shows phosphorylation enrichment at minimum 0.4?
OUT: not met

IN: Entry INASGYRIGPA [ACSM1_Y477] : is its phosphorylation enrichment no less than 0.4?
OUT: not met

IN: Is phosphorylation enrichment at least 0.4? Consider AKNKDYMSIIR [GNE_Y197]
OUT: met

---

systemUnderTest: FGFR1 (UniProt P11362)
Sequence (P11362 whole entry, looked up): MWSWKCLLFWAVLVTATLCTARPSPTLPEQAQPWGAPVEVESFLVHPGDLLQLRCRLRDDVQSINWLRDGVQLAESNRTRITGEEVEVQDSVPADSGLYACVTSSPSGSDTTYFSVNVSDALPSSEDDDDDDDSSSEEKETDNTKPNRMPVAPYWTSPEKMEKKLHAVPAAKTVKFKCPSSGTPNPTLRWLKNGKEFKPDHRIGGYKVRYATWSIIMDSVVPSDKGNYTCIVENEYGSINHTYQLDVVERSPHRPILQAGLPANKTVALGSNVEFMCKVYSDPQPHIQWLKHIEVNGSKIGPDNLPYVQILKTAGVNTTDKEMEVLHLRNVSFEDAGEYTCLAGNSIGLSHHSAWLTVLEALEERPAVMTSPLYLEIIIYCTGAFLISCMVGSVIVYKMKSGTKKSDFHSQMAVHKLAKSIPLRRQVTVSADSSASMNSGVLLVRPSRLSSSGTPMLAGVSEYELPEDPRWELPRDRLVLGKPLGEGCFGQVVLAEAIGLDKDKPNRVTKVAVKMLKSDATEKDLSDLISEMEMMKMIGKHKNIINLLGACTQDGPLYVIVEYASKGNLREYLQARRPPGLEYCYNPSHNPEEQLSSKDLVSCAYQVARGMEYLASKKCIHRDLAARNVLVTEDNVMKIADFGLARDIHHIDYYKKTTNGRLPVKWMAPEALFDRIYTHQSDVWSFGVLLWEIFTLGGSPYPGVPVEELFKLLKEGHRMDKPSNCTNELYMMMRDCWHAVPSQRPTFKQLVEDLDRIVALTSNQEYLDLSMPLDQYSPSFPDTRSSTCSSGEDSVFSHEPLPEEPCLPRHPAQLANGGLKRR
assayNotes: phosphorylation enrichment, bacterial display (enrichment ratio); higher = better substrate or ligand; peptides without Tyr show the background
Provide the recorded phosphorylation enrichment for the entries that follow.
Write the value as a bare number.

IN: // phosphorylation enrichment lookup, key: KIIRRYVSSEG [ANK2_Y3907]
OUT: 0.384

IN: Which value of phosphorylation enrichment has been reported for SLKAFYGEDAK [ALDH3A1_Y272_E270A] in the records?
OUT: 0.433

IN: Name the reported phosphorylation enrichment value associated with the sequence VQNIVYHTASI [CYP39A1_Y102_R103H]
OUT: 0.435

IN: Please look up its phosphorylation enrichment: ARMTNYGLPRY [TSPAN12_Y138]
OUT: 0.495

IN: Entry HRGCLYLAIEY [TEK_Y899_Y897C] : reported phosphorylation enrichment = ?
OUT: 0.827

IN: Which phosphorylation enrichment is reported for this sequence? PPLMLYNPTTY [EGFR_Y270]
OUT: 0.43

IN: Param item = DLDTDYGSGYP [RNASEH2A_Y206] ; retrieve measured phosphorylation enrichment.
OUT: 0.689

IN: Field request: phosphorylation enrichment | item: GDYLSYREFHS [ERBIN_Y1107]
OUT: 4.66

IN: Value lookup for phosphorylation enrichment; key = RLEGVYRNNID [PTEN_Y46]
OUT: 0.293

IN: Look at this sequence and give its reported phosphorylation enrichment. ALAHKYHGGGG [HBB_Y146]
OUT: 0.537

IN: Quick check: phosphorylation enrichment of PHRSIYFSSPK [MPG_Y75_Y71H] ?
OUT: 0.803

IN: Could you tell me which phosphorylation enrichment is on file for QFNIQYSSSAA [ERBB2IP_Y981_YF] ?
OUT: 0.832

IN: Reported phosphorylation enrichment for PLAVPYLDKPP [JMJD7_Y31] : what is it?
OUT: 0.504

IN: Which phosphorylation enrichment is reported for this sequence? ERDYTYEELLN [EIF2S2_Y176]
OUT: 0.579

IN: // returns reported phosphorylation enrichment for input IGEGTYGVLYK [CDK2_Y15_V18L]
OUT: 0.416

IN: Which measured phosphorylation enrichment value corresponds to GRQGIYTENKR [GPR143_Y231_E235K] ?
OUT: 0.477

IN: Name the reported phosphorylation enrichment value associated with the sequence HLAQRYLIWEC [SCN5A_Y694_R689H]
OUT: 0.788

IN: Suppose we examine the sequence FSALDYKIFFF [WDPCP_Y210_L205F_YF] ; what phosphorylation enrichment value has been reported?
OUT: 0.6

IN: # lookup: phosphorylation enrichment of LNEQHYGGLTG [PGAM4_Y92_R90Q]
OUT: 0.659

IN: Suppose we examine the sequence PQGVGYPQQQQ [EP300_Y2219_P2221Q] ; what phosphorylation enrichment value has been reported?
OUT: 0.448

IN: Give the measured phosphorylation enrichment of LGIDRYHAIVY [NPSR1_Y147_S143G] .
OUT: 2.82

IN: // returns reported phosphorylation enrichment for input VHNLNYYKKTT [FGFR3_Y647_D646N]
OUT: 0.447

IN: Which phosphorylation enrichment value belongs to VEFAKYGSLRG [RET_Y809_YF] ?
OUT: 0.417

IN: For the sequence SMGMKYLEEKN [ZAP70_Y451] , what phosphorylation enrichment is on record?
OUT: 0.493

IN: Fill blank: measured phosphorylation enrichment of the sequence EQKRFYNAMKK [SCN5A_Y1495_K1493R_YF] is ____.
OUT: 0.369

IN: Quick one: phosphorylation enrichment for VHNLDYFKQTT [FGFR3_Y647_K650Q_YF] ?
OUT: 0.743

IN: Recorded phosphorylation enrichment of GNLLIYTELGK [HGD_Y166_F169L] , please.
OUT: 1.29

IN: Which phosphorylation enrichment value is on record for FADGVYLALEE [DUOX2_Y70_Q71L_YF] ?
OUT: 0.881

IN: Please give the measured phosphorylation enrichment for this sequence: DNAYQYMLTDR [MYH7_Y164]
OUT: 3.6

---

systemUnderTest: Jak2 (UniProt O60674)
Sequence (O60674 whole entry, looked up): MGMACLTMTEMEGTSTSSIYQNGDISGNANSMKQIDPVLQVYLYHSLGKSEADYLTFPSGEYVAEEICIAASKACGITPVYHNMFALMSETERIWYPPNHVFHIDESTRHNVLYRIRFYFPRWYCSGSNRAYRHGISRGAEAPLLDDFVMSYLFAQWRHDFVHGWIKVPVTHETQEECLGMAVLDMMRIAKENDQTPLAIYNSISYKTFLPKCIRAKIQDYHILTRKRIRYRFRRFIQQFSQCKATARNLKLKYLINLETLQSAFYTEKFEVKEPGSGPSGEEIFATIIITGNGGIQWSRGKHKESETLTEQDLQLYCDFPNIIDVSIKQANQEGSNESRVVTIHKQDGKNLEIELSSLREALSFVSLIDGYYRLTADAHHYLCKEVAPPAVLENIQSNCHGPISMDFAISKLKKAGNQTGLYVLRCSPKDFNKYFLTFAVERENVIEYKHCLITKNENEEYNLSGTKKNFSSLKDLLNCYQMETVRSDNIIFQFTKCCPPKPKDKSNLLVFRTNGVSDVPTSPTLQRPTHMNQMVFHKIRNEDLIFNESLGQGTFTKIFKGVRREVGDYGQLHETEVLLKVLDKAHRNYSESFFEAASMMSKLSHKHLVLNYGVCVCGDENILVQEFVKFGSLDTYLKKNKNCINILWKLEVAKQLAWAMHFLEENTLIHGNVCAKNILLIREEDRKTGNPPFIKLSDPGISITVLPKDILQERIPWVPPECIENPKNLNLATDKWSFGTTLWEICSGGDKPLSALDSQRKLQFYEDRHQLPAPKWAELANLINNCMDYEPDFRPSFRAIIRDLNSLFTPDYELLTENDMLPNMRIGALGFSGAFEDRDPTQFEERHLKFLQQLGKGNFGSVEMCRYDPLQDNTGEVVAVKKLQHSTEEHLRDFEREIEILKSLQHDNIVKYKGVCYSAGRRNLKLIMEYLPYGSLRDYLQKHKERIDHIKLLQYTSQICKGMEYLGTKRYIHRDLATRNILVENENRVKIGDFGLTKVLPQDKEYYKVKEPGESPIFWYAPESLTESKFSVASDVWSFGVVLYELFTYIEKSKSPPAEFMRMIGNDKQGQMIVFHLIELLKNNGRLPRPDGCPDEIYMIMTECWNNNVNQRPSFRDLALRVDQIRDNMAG
assayNotes: phosphorylation enrichment, bacterial display (enrichment ratio); higher = better substrate or ligand; peptides without Tyr show the background
We use 0.8 as the dividing line for phosphorylation enrichment: on or above the line is class 1, below is class 0.

IN: Hello, I need to know if QRPGLYDRPGA [HNRNPH2_Y210_P209L] has measured phosphorylation enrichment not below 0.8. Thanks!
OUT: class 1

IN: // inclusive: phosphorylation enrichment at least 0.8? input: NTYEKYLGEEY [TF_Y669]
OUT: class 1

IN: Is the recorded value of phosphorylation enrichment equal to or greater than 0.8 for this sequence? YPPTHYIRRMP [SLC4A11_Y820_V824M]
OUT: class 0

IN: Could you verify whether the entry SLKAFYGEDAK [ALDH3A1_Y272_E270A] shows phosphorylation enrichment of no less than 0.8?
OUT: class 0

IN: Please tell me: is the sequence LIPIKYKAMKK [MYD88_Y257] at or over 0.8 in terms of phosphorylation enrichment?
OUT: class 0

IN: Please check the record YQEPVYSVAFS [TBL1X_Y509_H504Y] and state if its phosphorylation enrichment is at or above 0.8.
OUT: class 1

IN: Does TKQLTYEEQYL [PIK3C3_Y310_D314Y] have a reported phosphorylation enrichment of at least 0.8?
OUT: class 1

IN: # check: phosphorylation enrichment of RVQKRYIFDNV [RCN1_Y115] is greater than or equal to 0.8
OUT: class 0

IN: Is phosphorylation enrichment for VEYAKYGSLRG [RET_Y809] at or above 0.8?
OUT: class 0

IN: Test whether the sequence LEISPYMLSGP [LRRK2_Y1718_R1723P] records phosphorylation enrichment of 0.8 or higher.
OUT: class 1

IN: Check if phosphorylation enrichment >= 0.8 (inclusive). Item: LGLTVYADCLA [ABCA4_Y2063]
OUT: class 1

IN: Test whether the sequence GGTPLYMDRQG [AGXT_Y194] records phosphorylation enrichment of 0.8 or higher.
OUT: class 0

IN: Quick check, phosphorylation enrichment >= 0.8? PMFHSYVSLPF [PLXNA2_Y293_K289M]
OUT: class 1

IN: Answer whether phosphorylation enrichment of MHDSNYVSKGS [PDGFRA_Y849] is greater than or equal to 0.8.
OUT: class 0

IN: # bool: phosphorylation enrichment of SRVNKYSTAFG [GJB3_Y16_G12R] >= 0.8
OUT: class 0

IN: Decide: phosphorylation enrichment of ALTDNYMFLVI [HAGH_Y61_YF] >= 0.8?
OUT: class 1

IN: Item AEYGLYRAMVR [VSX2_Y222_G223R] with phosphorylation enrichment of 0.8 or above?
OUT: class 0

IN: Please tell me: is the sequence PRLMLYNPTTY [EGFR_Y270_P266R] at or over 0.8 in terms of phosphorylation enrichment?
OUT: class 1

IN: Decide: is the reported value of phosphorylation enrichment for MSRDVYSTDCY [NTRK2_Y702_Y706C] equal to or greater than 0.8?
OUT: class 1

IN: Identify whether the reported phosphorylation enrichment of the following sequence is 0.8 or greater: RAIGFYSATSK [FAM120A_Y328_YF]
OUT: class 1

IN: Has GSPPPYRRRKR [MBD1_Y403] a recorded phosphorylation enrichment greater than or equal to 0.8?
OUT: class 0

IN: API: above_or_equal(metric=phosphorylation enrichment, cutoff=0.8) for item RLCQDYDIIGP [ANK1_Y1073_T1075I]
OUT: class 1

IN: Please indicate if the recorded phosphorylation enrichment for HQEPVCSVAFS [TBL1X_Y509_Y509C] meets or exceeds 0.8.
OUT: class 1

IN: Say whether FRARAYSFRGP [CHGA_Y381_G382S] shows phosphorylation enrichment of 0.8 or more.
OUT: class 0

IN: Check if phosphorylation enrichment >= 0.8 (inclusive). Item: SDVCMYRKNIY [SYNE2_Y570]
OUT: class 1

IN: Check if phosphorylation enrichment >= 0.8 (inclusive). Item: AGITAYQSCLQ [ADGRA2_Y377]
OUT: class 1

IN: Check if phosphorylation enrichment >= 0.8 (inclusive). Item: ADYYDYGRGLS [KHDRBS3_Y304_H306R]
OUT: class 1

IN: Assess whether reported phosphorylation enrichment for FLRTGYSIPFG [TGM1_Y370_V372I_YF] sits at 0.8 or higher.
OUT: class 1

IN: Kindly determine if phosphorylation enrichment recorded for DENWFYTRPAS [RPS19_Y54_A57P] is above or exactly 0.8.
OUT: class 1

IN: Is it the case that CVGGFYGGCNE [CTSC_Y352_Y347C] has phosphorylation enrichment reaching or exceeding 0.8?
OUT: class 0

IN: Kindly determine if phosphorylation enrichment recorded for PPLMLYNPTTY [EGFR_Y270] is above or exactly 0.8.
OUT: class 0

IN: Could you verify whether the entry NTGGFYDLFGG [PTPN11_Y63_D61G_YF] shows phosphorylation enrichment of no less than 0.8?
OUT: class 1

IN: Please check the record FFSSEYHCVGG [CTSC_Y345_Y347C_YF] and state if its phosphorylation enrichment is at or above 0.8.
OUT: class 1

IN: Decide: is the reported value of phosphorylation enrichment for IGSQRYKLGVR [RB1_Y446] equal to or greater than 0.8?
OUT: class 0

IN: Reported phosphorylation enrichment reaches at least 0.8 for NQELIYEGRRL [TBK1_Y354] ?
OUT: class 0

IN: State whether the measured phosphorylation enrichment reaches 0.8, counting equality as reaching it, for CLMILYRLKER [PTPRR_Y249]
OUT: class 1

IN: Answer whether phosphorylation enrichment of EPAVLYNLKER [MYH7_Y103_D107E] is greater than or equal to 0.8.
OUT: class 0

IN: Identify whether the reported phosphorylation enrichment of the following sequence is 0.8 or greater: RFVFFYSFLLK [PTEN_Y178_YF]
OUT: class 1

IN: Would you say HELFVYKCDEN [DOCK3_Y548_YF] shows phosphorylation enrichment at minimum 0.8?
OUT: class 1

IN: Could you verify whether the entry RKGIRYLTSGL [PIGA_Y82] shows phosphorylation enrichment of no less than 0.8?
OUT: class 0

IN: Quick check, phosphorylation enrichment >= 0.8? AAVDNYCRHNF [HLA-DRB1_Y107_T106N_YF]
OUT: class 1

IN: Would you say ETDPRYFDEEF [AKT1_Y437_T435P] shows phosphorylation enrichment at minimum 0.8?
OUT: class 1

IN: Has ILGLEYSLRLP [HELZ2_Y1304_V1308L] a recorded phosphorylation enrichment greater than or equal to 0.8?
OUT: class 1

IN: Check if phosphorylation enrichment >= 0.8 (inclusive). Item: FVHDNYVIRRT [CPS1_Y1450]
OUT: class 0

IN: Hello, I need to know if QPGTDYKIYRY [FN1_Y1970_L1974R] has measured phosphorylation enrichment not below 0.8. Thanks!
OUT: class 1

IN: Textbook exercise: given the entry IPKTWYSAEQF [CD207_Y217] , state whether its phosphorylation enrichment is greater than or equal to 0.8.
OUT: class 0

IN: Given the entry KLKRSYSSRDI [USP8_Y717_P720R] , answer whether its phosphorylation enrichment meets or surpasses 0.8.
OUT: class 0

IN: Confirm if phosphorylation enrichment reported for the sequence FFRDGYMPRQF [GSS_Y270_YF] is 0.8 or above.
OUT: class 0

IN: Record TNYCLYLRSLE [MTM1_Y71_R69C] ; criterion: phosphorylation enrichment no lower than 0.8. Met?
OUT: class 1

IN: Identify whether the reported phosphorylation enrichment of the following sequence is 0.8 or greater: LNPLIYSLRNK [OR5R1_Y290]
OUT: class 1

IN: Record FFIMMYTGSNV [DNAJC13_Y1131] ; criterion: phosphorylation enrichment no lower than 0.8. Met?
OUT: class 1

IN: Identify whether the reported phosphorylation enrichment of the following sequence is 0.8 or greater: LGSWTYPKTVS [ROS1_Y144_T145P]
OUT: class 0

IN: Identify whether the reported phosphorylation enrichment of the following sequence is 0.8 or greater: FMRGMYFRMKD [PLA2G6_Y541_YF]
OUT: class 1

IN: hey, is phosphorylation enrichment for this one >= 0.8? AAFNRYDQERF [CDC73_Y293_YF]
OUT: class 0

Values from the supplement of paper PMC10065799
